From: patent US20240101668A1

- system: T1, huFLT3-M227 stably expressed on Ramos cells (human, UniProt P36888 27-993)
- T1 construct: whole, on cells; also called FLT3 Mutant
- T1 sequence (P36888 27-993 T227M): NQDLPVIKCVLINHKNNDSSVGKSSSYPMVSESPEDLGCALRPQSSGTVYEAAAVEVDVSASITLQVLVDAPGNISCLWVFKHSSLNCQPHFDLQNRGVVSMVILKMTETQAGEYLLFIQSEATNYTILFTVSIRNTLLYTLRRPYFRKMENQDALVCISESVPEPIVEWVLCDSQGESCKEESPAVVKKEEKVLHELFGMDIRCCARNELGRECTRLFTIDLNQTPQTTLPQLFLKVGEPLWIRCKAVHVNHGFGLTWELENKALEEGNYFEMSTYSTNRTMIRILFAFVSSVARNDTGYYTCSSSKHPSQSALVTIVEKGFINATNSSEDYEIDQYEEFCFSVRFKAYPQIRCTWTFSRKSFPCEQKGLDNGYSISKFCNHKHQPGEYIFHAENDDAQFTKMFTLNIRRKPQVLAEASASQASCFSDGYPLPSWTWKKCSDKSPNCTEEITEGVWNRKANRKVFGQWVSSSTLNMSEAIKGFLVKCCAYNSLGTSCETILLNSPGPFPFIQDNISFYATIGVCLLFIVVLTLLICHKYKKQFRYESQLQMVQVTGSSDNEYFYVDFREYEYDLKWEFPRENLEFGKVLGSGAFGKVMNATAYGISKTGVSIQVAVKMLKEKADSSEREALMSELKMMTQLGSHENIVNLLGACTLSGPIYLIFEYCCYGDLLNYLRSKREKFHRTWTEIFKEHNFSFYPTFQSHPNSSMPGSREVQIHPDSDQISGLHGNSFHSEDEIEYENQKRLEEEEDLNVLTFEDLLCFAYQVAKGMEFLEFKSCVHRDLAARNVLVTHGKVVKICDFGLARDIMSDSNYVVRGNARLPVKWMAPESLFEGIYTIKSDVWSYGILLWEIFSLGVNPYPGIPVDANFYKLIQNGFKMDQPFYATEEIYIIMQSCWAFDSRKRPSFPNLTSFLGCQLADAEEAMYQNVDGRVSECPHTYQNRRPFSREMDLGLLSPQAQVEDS
- protocol_description: FACS on cells
measured_parameter: FACS geometric mean fold change over Jurkat parental

binder | meas_value
Polypeptide No. 221 (scFv, V domains shown, scFv) VH: QVQLVQSGAEVKKPGASVKVSCKASGYTFTDNYMHWVRQAPGQGLEWMGWMTPDSNNTGFAQNFQGRVTMTRDTSTSTVYMELSSLRSEDTAVYYCALGDGPFGMDVWGQGTTVTVSS VL: DIVMTQSPLSLPVTPGEPASISCRSSQSLLHSNGYNYLDWYLQKPGQSPQLLIYGASYLQSGVPDRFSGSGSGTDFTLKISRVEAEDVGVYYCMQALQGPITFGQGTKVEIKR | 2 to 10 fold

Okay, next one:
-- ask What value of measured FACS geometric mean fold change over Jurkat parental is listed for Polypeptide No. 282 (scFv, V domains shown, scFv) VH: QVQLVQSGAEVKKPGASVKVSCKASGGTFSSYAISWVRQAPGQGLEWMGWMNPNSGDTGYAQKFQGRVTMTRDTSTSTVYMELSSLRSEDTAVYYCARDFEGGGWFDPWGQGTLVTVSS VL: EIVMTQSPATLSVSPGERATLSCRASRSISDYLAWYQQKPGQAPRLLIYDASSRATGIPARFSGSGSGTEFTLTISSLQSEDFAVYYCQQYYTTPLTFGQGTKVEIKR ?
-- reply 2 to 10 fold
